# ASSAYED SYSTEM: Integrin alpha-V/beta-3 (Homo sapiens, UniProt P05106+P06756)
# PROCEDURE DETAILS: Inhibition of vitronectin binding to human alphavbeta3 integrin receptor after 1 hr by competitive solid-phase binding ELISA
MEASURED PARAMETER: IC50 (nM)

INSERT INTO assay_data (molecule, measured_parameter, unit_descriptor, numeric_readout) VALUES
  ('COc1ccnc(NCCCOc2ccc(C[C@@H](CC(=O)O)NC(=O)c3ccc(OC(C)C)cc3)cc2)c1', 'IC50', 'nM', 0.86);

P. COc1ccnc(NCCCOc2ccc(C[C@@H](CC(=O)O)NC(=O)c3ccc(F)cc3)cc2)c1
Q. Cc1cccc(NCCCOc2ccc(C[C@@H](CC(=O)O)NC(=O)c3ccccc3)cc2)n1
R. COc1ccnc(NCCCOc2ccc(C[C@@H](CC(=O)NO)NS(=O)(=O)c3ccc(C)cc3)cc2)c1
S. COc1ccnc(NCCCOc2ccc(C[C@@H](CC(=O)NO)NC(=O)c3ccc(OC(C)C)cc3)cc2)c1
T. COc1ccnc(NCCCOc2ccc(C[C@@H](CC(=O)O)NS(=O)(=O)c3ccc(C)cc3)cc2)c1
QUERY: Hey, quick one: sort these by IC50, low to high? Form entry: ranked labels (order as requested).
RESULT: T, P, R, Q, S
(T: 0.65 nM, P: 1.6 nM, R: 75.1 nM, Q: 110 nM, S: 638 nM)
